FYI, the data here is from PubChem BioAssay.

composite z-score values by entry
TEST_DESCRIPTION: anti-His antibody binders, primary screen, artefact control for SMM control protein annotation, biochemical, small-molecule microarray, 635 nm fluorescence (AID 1128);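 note: score merges feature fluorescence with signal-to-noise for each printed compound spot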
ASSAY_CONDITIONS: anti-His Alexa647 antibody binding, higher = more signal
Lab note: jot the number down without any unit.

compound="C=CC[C@]1(C(=O)NCC(O)CO)N=C(c2ccc(OCCCO)cc2)O[C@H]1c1ccccc1 (some centres not stated)" quantitative_result=0.307
compound=O=C(NCc1ccccc1)c1ccc(Br)cc1[N+](=O)[O-] quantitative_result=-0.26
compound="C=CCN(C(=O)C1N(c2ccc(CCO)cc2)C(=O)C2C(C(=O)O)C3C=CC21O3)C(C)(C)C (configuration not stated)" quantitative_result=-1.51
compound="CC(C)N1CC=CC23O[C@@H]4/C=C\\CCCOC(=O)C4[C@H]2C(=O)N(CCO)[C@@H]3C1=O (some centres not stated)" quantitative_result=-0.548
compound=CCCCO[C@H]1C[C@H]2C(Br)=C[C@@]1(CO)C(=O)[C@]21CO1 quantitative_result=-0.487
compound=CCCNC(=O)[C@@]1(Sc2ccc(C)cc2)CC(=O)N(Cc2ccccc2Cl)[C@@H]1c1ccc(CO)cc1 quantitative_result=1.12
compound=C#CCCCON=C1C[C@@H](O)[C@@H](O)[C@@H]2[C@@H]3C(=O)N(Cc4ccc5c(c4)OCO5)C(=O)[C@@H]3CC[C@H]12 quantitative_result=0.833
compound=C[N+](C)(C)CCCCNC(=O)[C@H]1C[C@H]2C(=O)NCC(=O)N2[C@H]1c1cccc(OCCO)c1 quantitative_result=2.81
compound=C/C(=N\O)C(=O)NCCCCCNC(=O)OCc1ccccc1 quantitative_result=0.443
compound=CO[C@H]1COC(=O)[C@@H](C)NC(=O)CC=C[C@@H](C)[C@H](OC)COC(=O)CC=C[C@@H]1C quantitative_result=-0.31

Dear colleague, I am looking for the recorded composite z-score of the following compound: `CC(=O)NCCCC[C@@H]1NC(=O)[C@H]2C[C@@H](C(=O)NCCCCCCN(C)C)[C@@H](c3ccc(O)cc3)N2C1=O` 3.14

Continue with O=C1C2C=CC(C(O)C(c3ccccc3)c3ccccc3)N(Nc3ccc([N+](=O)[O-])cc3)C2C(=O)N1c1ccccc1 (configuration not stated) 1.79

Similarly, `COC(=O)[C@@]1(Cc2ccccc2CN=[N+]=[N-])N=C(c2ccc(OCCCO)cc2)O[C@H]1c1ccccc1N=[N+]=[N-]` ? -0.0307

Same lookup for `COc1cc(Cc2cc3c(c(CCc4ccccc4)n2)[Si](C(C)C)(C(C)C)OC3)cc(OC)c1OC` , please. 0.151

Item: `CO[C@H]1COC(=O)[C@H](C)NC(=O)CC=C[C@@H](C)[C@H](NS(=O)(=O)c2ccc(C)cc2)COC(=O)CC=C[C@@H]1C` -0.0701

Try `Cc1ccc(S(=O)(=O)N[C@H]2COC(=O)CC=C[C@H](C)COC(=O)N[C@@H](C)C(=O)CC=C[C@@H]2C)cc1` next. -0.45

Please give the result for `Cc1ccc(S[C@]2(C(=O)NC3CC3)CC(=O)N(Cc3cc(C(F)(F)F)cc(C(F)(F)F)c3)[C@@H]2c2ccc(CO)cc2)cc1` too. 1.79

---

TEST_DESCRIPTION: A549 lung cancer cell viability effects, profiling panel, resazurin fluorescence, 24 h, PK04 Diversity Set (AID 1171); note: test concentration not given here
ASSAY_CONDITIONS: higher = more signal, called active from +8 up or from −8 down
EXPERIMENTAL_READOUT: z-score
Give your answer as a number; write no unit.

Example cases with answers are listed next.
molecule=C[C@@H]1CC[C@H]2C(=O)N3[C@@H](CC[C@@H](C)[C@@H]3c3cccc(N4CCOCC4)c3)C(=O)N2[C@H]1c1cccc(Br)c1 experimental_readout=z-score quantitative_result=1.36
molecule=COc1ccc([Si](C)(C)[C@@H]2[C@@H](CCO)O[C@]3(C(=O)N(Cc4ccccc4)c4ccccc43)[C@H]2C)cc1 experimental_readout=z-score quantitative_result=-1.69
molecule="C#CCNC(/C=C/c1ccccc1)CO (stereo unspecified)" experimental_readout=z-score quantitative_result=0.234
molecule=COCC(=C=CC[C@H](O)c1ccc(OCCO)cc1)C[C@H](O)c1ccccn1 experimental_readout=z-score quantitative_result=1.02
molecule=O=C1O[C@@H](c2ccccc2)[C@@H](c2ccccc2)N2[C@@H](c3ccc(O)cc3)[C@]3(C(=O)Nc4ccc(C#CC5(O)CCCCCC5)cc43)[C@@H](C(=O)Nc3nc4ccccc4s3)[C@H]12 experimental_readout=z-score quantitative_result=1.2
molecule=COC(=O)C(CC#Cc1ccc2c(c1)[C@]1(C(=O)N2)[C@H](C(=O)N2CCCCCCC2)[C@H]2C(=O)O[C@H](c3ccccc3)[C@H](c3ccccc3)N2[C@@H]1c1ccc(O)cc1)C(=O)OC experimental_readout=z-score quantitative_result=-0.429
molecule=Cc1ccc(S[C@]2(C(=O)O)CC(=O)N(Cc3ccccc3)[C@@H]2c2ccc(CO)cc2)cc1 experimental_readout=z-score quantitative_result=0.477
molecule=COC(=O)Cn1c(C(=O)N2CCCC2)cc2c1C[C@H]1CN(C(=O)c3ccccc3)[C@@](Cc3ccccc3)(C(=O)OC)[C@@H]21 experimental_readout=z-score quantitative_result=0.359
molecule=COCCOC(=O)N1C(=O)[C@@]2(c3cc(C#CCC(C(=O)OC)C(=O)OC)ccc31)[C@H](c1ccccc1OCCO)N1[C@H](c3ccccc3)[C@H](c3ccccc3)OC(=O)[C@H]1[C@@H]2C(=O)N1CCCCCCC1 experimental_readout=z-score quantitative_result=0.719
molecule=C=CC[C@]1(C(=O)O)N=C(c2ccc(OCCCO)cc2)O[C@H]1c1ccccc1N=[N+]=[N-] experimental_readout=z-score quantitative_result=0.909

Quick check: z-score of `CCOC(=O)C1=CC[C@@H](c2ccccc2)N(S(=O)(=O)c2ccc(C)cc2)[C@H]1C` ? 0.0723

Next record, please: `COCCOC(=O)N1C(=O)[C@@]2(c3cc(C#CCNC(N)=O)ccc31)[C@H](c1ccccc1OCCO)N1[C@H](c3ccccc3)[C@H](c3ccccc3)OC(=O)[C@H]1[C@@H]2C(=O)NC[C@H](O)c1ccccc1` 0.868

And for `C[C@@H]1NC(=O)CC=C[C@@H](C)[C@@H]2C=C[C@H](O)[C@@H](COC(=O)[C@H](C)NC(=O)CC=C[C@@H](C)[C@@H]3C=C[C@H](O)[C@@H](COC1=O)O3)O2` ? -0.756

Continue with `C=C(COC)/C(=C/C[C@@H](OC(C)=O)c1cccc(OCCO)c1)c1cc(C(=O)OC)ccc1OC` 1.49

Proceed to `COc1ccc(-c2cc3c(c(-c4ccccc4)n2)[Si](C(C)C)(C(C)C)O[C@H]3c2ccccc2)cn1` 1.51

What do you get for `O=C(CS)NCCCCCNC(=O)[C@H]1C[C@H]2C(=O)N3CCC[C@H]3C(=O)N2[C@H]1c1ccc(O)cc1` ? 0.641

`COc1cccc([C@@H]2[C@@H](C)CC[C@H]3C(=O)N(C)[C@@H](C(C)C)C(=O)N23)c1` ? 0.65

---

TARGET_DESC: Luciferin 4-monooxygenase (Photinus pyralis) (UniProt P08659)
Sequence (P08659 whole entry, looked up): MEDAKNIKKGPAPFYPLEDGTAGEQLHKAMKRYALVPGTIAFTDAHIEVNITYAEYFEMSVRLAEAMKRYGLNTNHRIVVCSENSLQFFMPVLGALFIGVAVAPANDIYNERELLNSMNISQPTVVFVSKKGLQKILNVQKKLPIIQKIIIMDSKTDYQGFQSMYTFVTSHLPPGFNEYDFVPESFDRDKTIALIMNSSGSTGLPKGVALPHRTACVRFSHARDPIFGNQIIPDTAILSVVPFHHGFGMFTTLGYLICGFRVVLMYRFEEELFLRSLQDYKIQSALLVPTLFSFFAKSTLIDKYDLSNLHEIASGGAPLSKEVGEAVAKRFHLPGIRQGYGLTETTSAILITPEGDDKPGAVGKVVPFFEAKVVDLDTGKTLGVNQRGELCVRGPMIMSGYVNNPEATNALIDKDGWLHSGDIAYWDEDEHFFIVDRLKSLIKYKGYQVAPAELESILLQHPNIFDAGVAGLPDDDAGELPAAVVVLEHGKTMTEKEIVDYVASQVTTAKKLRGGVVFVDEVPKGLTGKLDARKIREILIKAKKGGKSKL
TEST_DESCRIPTION: firefly luciferase enzyme inhibitors, primary screen, biochemical, luminescence, purified enzyme, 2006 set (AID 1141);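 note: cell-free assay with purified firefly luciferase at 100 ng per well in PBS; test concentration not given here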
ASSAY_CONDITIONS: SteadyGlo luminescence, 30 min, higher = more signal, called active from +8 up or from −8 down
EXPERIMENTAL_READOUT: z-score
Give the figure by itself; no unit, no explanation.

smiles_text=CCCCCCc1nc(-c2cc(C)c(OC)c(C)c2)cc2c1[Si](C(C)C)(C(C)C)O[C@H]2c1ccccc1 experimental_readout=z-score quantitative_result=0.844
smiles_text=O=C(NCc1ccccc1)[C@@]1(CCS(=O)(=O)c2ccccc2)COC(c2ccc(OCCCO)cc2)=N1 experimental_readout=z-score quantitative_result=-1.42
smiles_text=[N-]=[N+]=NCc1ccccc1C[C@]1(C(=O)N2CCCCC2)N=C(c2ccc(OCCCO)cc2)O[C@H]1c1ccccc1CN=[N+]=[N-] experimental_readout=z-score quantitative_result=-1.02

Please examine the following record next.
Sample `C=CC[C@]1(C(=O)O)N=C(c2ccc(OCCCO)cc2)O[C@H]1c1ccccc1` — what was its z-score? -1.8

---

TEST_DESCRIPTION: compound binding in COS7 lysate, probe aLAP1, primary screen, cell lysate, small-molecule microarray (AID 1124);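 note: lysate comes from COS7 cells expressing LAP1 and is applied at 0.3 µg/mL; score merges spot fluorescence near 667 nm with signal-to-noise over triplicate slides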
ASSAY_CONDITIONS: probe aLAP1, fluorescence, higher = more signal
EXPERIMENTAL_READOUT: composite z-score
Just the number, please, no unit attached.

molecule=[N-]=[N+]=NCc1ccccc1C[C@]1(C(N)=O)N=C(c2ccc(OCCCO)cc2)O[C@H]1c1ccccc1CN=[N+]=[N-] experimental_readout="composite z-score" quantitative_result=0.641
molecule=COc1ccc([Si](C)(C)[C@H]2[C@H](CC(=O)N(CCO)Cc3ccccc3)O[C@@]3(C(=O)N(C)c4ccccc43)[C@@H]2C)cc1 experimental_readout="composite z-score" quantitative_result=0.177
molecule=COc1cc2c(cc1OC)CN(C(=O)[C@@H]1[C@H]3C(=O)O[C@H](c4ccccc4)[C@H](c4ccccc4)N3[C@H](c3ccccc3OCCO)[C@@]13C(=O)Nc1ccccc13)CC2 experimental_readout="composite z-score" quantitative_result=1.31
molecule=CC(=O)NCCCC[C@@H]1NC(=O)[C@H]2C[C@@H](C(=O)NCCCCCCN(C)C)[C@@H](c3cccc(OCCO)c3)N2C1=O experimental_readout="composite z-score" quantitative_result=1.09
molecule=C[C@]1(C(=O)NCCN2CCOCC2)c2ccccc2C(=O)N(Cc2ccccc2)[C@H]1c1ccc(CO)cc1 experimental_readout="composite z-score" quantitative_result=0.389
molecule="O=C1OCCC/C=C\\[C@H]2OC34C=CCN(CCN5CCOCC5)C(=O)[C@H]3N(CCCCCO)C(=O)[C@@H]4C12 (stereo not given in full)" experimental_readout="composite z-score" quantitative_result=-0.401

What measured composite z-score goes with `CCN1C(C)=C(C(=O)OC)[C@@H](c2ccccc2)N2C(=O)[C@@]3(C(=O)OC)O[C@@]12[C@@H]1C(=O)CCC[C@@H]13` ? -0.227

Please do the same for CC(C)C[C@@H]1NC(=O)[C@H](CC(C)C)NC(=O)[C@@]23C(=O)N[C@@H](Cc4ccccc4)C2[C@H](C)[C@@]2(C)O[C@H]2C3/C=C/CC/C=C/CNC1=O (stereo not given in full) as well. -0.219
